molecular target: hTfR1 (extracellular domain of hTfR, His6-tagged) (Homo sapiens); construct: (NP_003225.2) (Cys 89-Phe 760); His6 (N); purchased Sino Biological Inc 11020-H07H; host or cells: HEK293; assay: Surface plasmon resonance-based biosensor assay (Biacore T100), aptamer-hTfR binding affinity and kinetics; conditions: Biacore T100, biotinylated aptamer on streptavidin chip, hTfR1 protein injected, 1:1 binding with mass transfer; read-out: K^D (M), equilibrium dissociation constant
Sequence (P02786 89-760): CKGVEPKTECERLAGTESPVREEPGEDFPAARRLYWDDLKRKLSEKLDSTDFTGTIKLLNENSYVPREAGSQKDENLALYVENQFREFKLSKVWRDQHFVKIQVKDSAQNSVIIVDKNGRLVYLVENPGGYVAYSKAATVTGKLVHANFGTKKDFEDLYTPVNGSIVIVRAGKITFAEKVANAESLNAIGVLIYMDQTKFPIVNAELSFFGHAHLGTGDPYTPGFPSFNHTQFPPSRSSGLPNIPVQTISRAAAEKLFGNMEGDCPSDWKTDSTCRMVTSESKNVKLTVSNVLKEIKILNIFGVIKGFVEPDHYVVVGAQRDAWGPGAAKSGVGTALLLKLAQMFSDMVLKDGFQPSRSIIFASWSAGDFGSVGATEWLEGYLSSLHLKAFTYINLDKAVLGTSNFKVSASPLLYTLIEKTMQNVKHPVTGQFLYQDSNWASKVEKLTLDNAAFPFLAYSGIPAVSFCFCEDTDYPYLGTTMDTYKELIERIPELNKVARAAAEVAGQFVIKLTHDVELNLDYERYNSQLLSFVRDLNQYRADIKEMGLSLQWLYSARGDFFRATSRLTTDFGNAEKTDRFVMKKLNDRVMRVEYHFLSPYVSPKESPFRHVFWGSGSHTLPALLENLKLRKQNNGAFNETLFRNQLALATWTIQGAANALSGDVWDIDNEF
reported.endpoint: Kd (M)

TR14 ST1-3: TR14 truncate, 22-nt, 5′-UUUAUUCACAUUUUUGAAUUGA-3′; SEQ ID NO:6 (listed as RNA, chemistry not given here)
2.2e-11
TR14 S1: TR14 truncate, 46-nt, with 5′-GGG; SEQ ID NO:2 (GGGGCUCAAUGCGUUCACGUUUAUUCACAUUUUUGAAUUGAGCAUG; listed as RNA, chemistry not given here)
1.46e-09
